- Tested on: P. falciparum stage V gametocytes
- Parameters: BacTiter-Glo ATP luminescence viability of purified stage V gametocytes in 384-well plates, per cent inhibition versus DMSO
- MEASUREMENT_SETUP: 48 h, 5 µM; inhibitor
The whole screen tested about 13,000 compounds, of which about 3,200 (25%) showed an effect of 50% or more. This is one part of the list.
QUANTITY_MEASURED: % Inhibition (%)
Answer format: numeric, % implied, no suffix.

Cc1cccc2[nH]c(-c3ccc(-c4cccc(NC(=O)Nc5ccc6c(c5)OCO6)c4)cc3)nc12 | -1.928
CCCc1cc(NCC)nc(Nc2ccc(C)cc2)n1 | -22.6
O=C(Cc1ccccc1)NC1CCN(c2ccnc3cc(Cl)ccc23)C1 (centres unmarked) | -4.28
Cc1ccc(NC(=O)c2ccc(NCCCN(C)Cc3ccccc3)c([N+](=O)[O-])c2)cc1F | 12.99
CCOC(=O)C1=C(C)NC2=C(C(=O)CCC2)C1c1cn(Cc2ccc(Cl)cc2Cl)nc1-c1ccccc1 (centres unmarked) | -36.58

Request: If you can, please state the reported % Inhibition value of CC(C)C[C@H](Nc1ccnc(NCC2CCCCC2)n1)C(=O)Nc1ccccc1 .
Result: -42.51

Request: Next: CCCNCc1ccc(-c2ccc(CN(CCOC)C(=O)CCc3ccc(OC)cc3)cc2)nc1
Result: 54.14

Request: Next: FC(F)(F)c1cc(Nc2ncnc3ccc(Br)cc23)ccc1OCc1ccccc1
Result: 9.607

----------
- Test system: P. falciparum stage V gametocytes
- Set-up: BacTiter-Glo ATP luminescence viability of purified stage V gametocytes in 384-well plates, per cent inhibition versus DMSO
- MEASUREMENT_SETUP: 48 h, 5 µM; inhibitor
Hit rate of the full screen: of about 13,000 compounds, about 3,200 (25%) showed an effect of 50% or more. The list shows a part of the results.
Listing of entries alongside the reported % Inhibition.
Reply with the number, then its unit.

Recorded results for 3 molecules are shown here.
CC(=O)Oc1c(Cl)c(C)nc(C)c1-c1ccc(Oc2ccc(OC(F)(F)F)cc2)cc1 | 74.48%
Cc1cc(=O)c2cc(Oc3ccc(OC(F)(F)F)cc3)ccc2[nH]1 | 0.2157%
CCCCOc1ccc(-n2c(Nc3ccccc3)nc3cc(S(N)(=O)=O)ccc32)cc1 | -3.968%

Request: If you can, please state the reported % Inhibition value of NC(=O)c1cc2nc(NC3CCC3)nc(Nc3cccc4[nH]ncc34)c2[nH]1 .
Result: 21.61%

Request: Next: O=C(Nc1cccc(-c2ccc(-c3nc4ccc(C(F)(F)F)cc4[nH]3)cc2)c1)Nc1ccc(Cl)c(Cl)c1
Result: -18.31%

Request: Next: Cc1[nH]cc(Br)c(=O)c1-c1ccc(Oc2ccc(OC(F)(F)F)cc2)cc1
Result: -4.559%

----------
- Test system: P. falciparum stage V gametocytes
- Parameters: BacTiter-Glo ATP luminescence viability of purified stage V gametocytes in 384-well plates, per cent inhibition versus DMSO
- MEASUREMENT_SETUP: 48 h, 5 µM, inhibitor, % Inhibition
The whole screen tested about 13,000 compounds, of which about 3,200 (25%) showed an effect of 50% or more. This is one part of the list.
Output y for % Inhibition not less than 60%; output n otherwise.

COc1ccc2nccc([C@@H](O)CN3CCC(NCc4nc5c(cc4Cl)SCC(=O)N5)C(F)C3)c2c1 (some centres unmarked) [TCMDC-141717] | n

Request: Form field: % Inhibition at least 60%? Entry: O=C(/C=C/c1ccccc1Cl)NC1CCC(CN2CCC(c3c[nH]c4ccccc34)CC2)CC1 (centres unmarked) [TCMDC-139714]
Result: n

Request: Next: Cc1c(C)c2c(c(C)c1O)CC[C@](C)(C(=O)NC1CCC(CN3CCC(c4c[nH]c5ccccc45)CC3)CC1)O2 (some centres unmarked)
Result: n

Request: Next: S=C(NCCc1ccc(Cl)cc1)NC1CCC(CN2CCC(c3c[nH]c4ccccc34)CC2)CC1 (centres unmarked) [TCMDC-140201]
Result: n

Request: Next: O=C(/C=C/c1ccccc1O)NC1CCC(CN2CCC(c3c[nH]c4ccccc34)CC2)CC1 (centres unmarked) [TCMDC-139720]
Result: y

Request: Next: S=C(NCCc1ccc(Cl)cc1)NC1CCC(CN2CCC(c3c[nH]c4ccccc34)CC2)CC1 (centres unmarked) [TCMDC-140183]
Result: y

Request: Next: O=C(/C=C/c1ccccc1O)NC1CCC(CN2CCC(c3c[nH]c4ccccc34)CC2)CC1 (centres unmarked) [TCMDC-139705]
Result: n

Request: Next: COc1ccc2ncc(F)c(C(O)CN3CCC(NCc4ccc5c(n4)NC(=O)CO5)CC3)c2c1 (centres unmarked) [TCMDC-135530]
Result: n

----------
Listing of entries alongside the reported % Inhibition.
- System: P. falciparum stage V gametocytes
- Design: BacTiter-Glo ATP luminescence viability of purified stage V gametocytes in 384-well plates, per cent inhibition versus DMSO
- MEASUREMENT_SETUP: 48 h, 5 µM; inhibitor
The campaign covered roughly 13,000 compounds. About 3,200 (25%) showed an effect of 50% or more. The list shows a part of the results.

Recorded results for 6 compounds are shown here.
CC[C@@H]([C@@H](Cc1cc2ccccc2s1)C(=O)N[C@@H](CCCCNC(=O)OCc1ccccc1)C(=O)Nc1ccccn1)N(O)C=O [TCMDC-138086] | 8.625%
CC1(C)CCCN(Cc2c(O)ccc3c(=O)c(-c4nc5ccccc5s4)c(N)oc23)C1 [TCMDC-124009] | -3.964%
CCN1CCC(N(Cc2ccc(-c3ccc(C(F)(F)F)cc3)cc2)C(=O)Cn2c(CCc3cccc(F)c3F)cc(=O)c3ccccc32)C1 (stereo not shown) [TCMDC-141300] | 90.33%
Cc1cc(NC(=O)c2cc(Br)ccc2Cl)n(-c2nc(C)c(C)c(=O)[nH]2)n1 [TCMDC-124938] | 58.54%
COc1ccc2ncc(C#N)c(CCN3CCC(NCc4ccc5c(n4)NC(=O)CS5)CC3)c2n1 [TCMDC-135188] | -9.823%
CCc1c(C)nc(-n2nc(C)cc2NC(=O)c2ccc(OC)cc2OC)[nH]c1=O [TCMDC-124937] | 1.355%

Here is another compound to look at.
Request: If you can, please state the reported % Inhibition value of COc1ccc(C=CC(=O)NC2CCC(CN3CCC(c4c[nH]c5ccccc45)CC3)CC2)cc1OC (stereo not shown) [TCMDC-139932] .
Result: 100.6%

----------
Listing of entries alongside the reported % Inhibition.
- Tested on: P. falciparum stage V gametocytes
- Design: BacTiter-Glo ATP luminescence viability of purified stage V gametocytes in 384-well plates, per cent inhibition versus DMSO
- MEASUREMENT_SETUP: 48 h, 5 µM; inhibitor
Out of some 13,000 compounds screened, about 3,200 (25%) showed an effect of 50% or more. The list shows a part of the results.
Answer format: numeric, % implied, no suffix.

CN(C)CCCn1c(C(=O)OC(c2ccccc2)c2ccccc2)cc2cc(OCc3ccccc3)ccc21 | 99.58
COc1ccccc1/C=C/C(=O)NC1CCC(CCN2CCc3ccc(-c4cc(C)no4)cc3CC2)CC1 (stereo not shown) | 80.37
O=C(Nc1ccc(-c2nc3ccc(NC(=O)c4ccc(Br)cc4)cc3[nH]2)cc1)c1ccc(Br)cc1 | -13.35
O=C(NC1CCC(CCN2CCc3ccc(-c4cnccn4)cc3CC2)CC1)c1cccc(-n2cccn2)c1 (stereo not shown) | 67.17
COc1ccc(CNc2ncnc3c2[nH]c2ccc(F)cc23)cc1 | 15.1

Request: Query % Inhibition on P. falciparum stage V gametocytes for Cc1ccc(-c2nc3ccc(C(=O)NC4CCC(N5CCCc6ccc(C#N)cc6C5)CC4)cc3[nH]2)cc1 (stereo not shown)
Result: -1.563

Request: Next: O=C(C=Cc1ccc(F)cc1)NC1CCC(CCN2CCc3ccc(-c4cnccn4)cc3CC2)CC1 (stereo not shown)
Result: 0.8671

Request: Next: CN(C)CCCN(C)C(=O)c1cc2cc(-c3ccccc3)ccc2n1S(=O)(=O)c1ccccc1
Result: 25.92

Request: Next: Cc1cc(-c2ccc3c(c2)CCN(CCC2CCC(NC(=O)/C=C/c4ccccc4F)CC2)CC3)on1 (stereo not shown)
Result: -78.86

Request: Next: N#Cc1ccc2c(c1)CCN(CCC1CCC(NC(=O)/C=C/c3c[nH]c4ccc(F)cc34)CC1)CC2 (stereo not shown)
Result: -9.203

Request: Next: Cn1cnc(-c2ccc3c(c2)CCN(CCC2CCC(NC(=O)/C=C/c4ccc(F)cc4)CC2)CC3)c1 (stereo not shown)
Result: 59.86

Request: Next: COc1ccccc1C1CCN(C2CCC(NC(=O)c3ccc4nc(-c5ccc(C)cc5)[nH]c4c3)CC2)CC1 (stereo not shown)
Result: 115.6
